Listed here are molecules together with their documented MIC.
System: Klebsiella pneumoniae
Assay: Potentiation of rifampicin-mediated antibacterial activity against Klebsiella pneumoniae ATCC 13883 assessed as rifampicin MIC at 2 ug/ml by checkerboard method (reference value: 16 ug/ml)
Format: functional
Non-standard residues stand in square brackets, D forms with d. Residues, ends and D or L forms follow the SMILES beside them. *: point of attachment. Octanoyl = CCCCCCCC(=O)*; Dab = NCC[C@H](N)C(=O)O; Bz = O=C(c1ccccc1)*

Some solved entries appear below for comparison.
MOLECULE	EXPERIMENTAL_TARGET	OBSERVED_RESULT
CCCCCCCC(=O)N[C@@H](CCN)C(=O)N[C@H](C(=O)N[C@@H](CCN)C(=O)N[C@H](Cc1ccccc1)C(=O)N[C@@H](CC(C)C)C(=O)N[C@@H](CCN)C(=O)N[C@@H](C(=O)N[C@@H](CC(C)C)C(=O)N[C@@H](CCN)C(N)=O)C(C)C)[C@@H](C)CC (Octanoyl-[Dab]I[Dab][dF]L[Dab][dV]L[Dab]-NH2)	Klebsiella pneumoniae	1.9 to 3.9 ng/mL
CC[C@H](C)[C@H](NC(=O)[C@H](CCN)NC(=O)c1ccccc1)C(=O)N[C@@H](CCN)C(=O)N[C@H](Cc1ccccc1)C(=O)N[C@@H](CC(C)C)C(=O)N[C@@H](CCN)C(=O)N[C@@H](C(=O)N[C@@H](CC(C)C)C(=O)N[C@@H](CO)C(N)=O)C(C)C (Bz-[Dab]I[Dab][dF]L[Dab][dV]LS-NH2)	Klebsiella pneumoniae	7.8 ng/mL

Consider the additional molecule presented here.
For Klebsiella pneumoniae, provide MIC of CCCCCCCC(=O)N[C@@H](CCN)C(=O)N[C@@H](CCN)C(=O)N[C@@H](CCN)C(=O)N[C@H](Cc1ccccc1)C(=O)N[C@@H](CC(C)C)C(=O)N[C@@H](CCN)C(=O)N[C@@H](C(=O)N[C@@H](CC(C)C)C(=O)N[C@@H](CCN)C(N)=O)C(C)C (Octanoyl-[Dab][Dab][Dab][dF]L[Dab][dV]L[Dab]-NH2) please.
62.5 to 125 ng/mL

----------
Overview of reported MIC across a group of molecules:
Test system: Staphylococcus aureus
Assay: Antibacterial activity against Staphylococcus aureus ATCC 29213 after 18 to 20 hrs by broth microdilution method
Assay type: functional
Non-standard residues stand in square brackets, D forms with d. Residues, ends and D or L forms follow the SMILES beside them. *: point of attachment. Cha = N[C@@H](CC1CCCCC1)C(=O)O; Heptanoyl = CCCCCCC(=O)*; Octanoyl = CCCCCCCC(=O)*; Dab = NCC[C@H](N)C(=O)O; Hexanoyl = CCCCCC(=O)*

// worked examples, MIC included
MOLECULE	MIC
CCCCCCC(=O)N[C@@H](CCN)C(=O)N[C@@H](Cc1ccccc1)C(=O)N[C@@H](CCN)C(=O)N[C@H](Cc1ccccc1)C(=O)N[C@@H](CC(C)C)C(=O)N[C@@H](CCN)C(=O)N[C@H](CC(C)C)C(=O)N[C@@H](Cc1ccccc1)C(=O)N[C@@H](CO)C(N)=O (Heptanoyl-[Dab]F[Dab][dF]L[Dab][dL]FS-NH2)	8 µg/mL
CCCCCCCC(=O)N[C@@H](CCN)C(=O)N[C@H](C(=O)N[C@@H](CCN)C(=O)N[C@H](Cc1ccccc1)C(=O)N[C@@H](CC(C)C)C(=O)N[C@@H](CCN)C(=O)N[C@@H](C(=O)N[C@@H](CC(C)C)C(=O)N[C@@H](CCN)C(N)=O)C(C)C)[C@@H](C)CC (Octanoyl-[Dab]I[Dab][dF]L[Dab][dV]L[Dab]-NH2)	> 32 µg/mL
CC(C)C[C@H](NC(=O)[C@@H](Cc1ccccc1)NC(=O)[C@H](CCN)NC(=O)[C@H](Cc1ccccc1)NC(=O)[C@H](CCN)NC(=O)[C@@H](N)CC1CCCCC1)C(=O)N[C@@H](CCN)C(=O)N[C@H](CC(C)C)C(=O)N[C@@H](Cc1ccccc1)C(=O)N[C@@H](CO)C(N)=O (H-[Cha][Dab]F[Dab][dF]L[Dab][dL]FS-NH2)	2 to 4 µg/mL

# evaluate next
Need MIC of CCCCCC(=O)N[C@@H](CCN)C(=O)N[C@H](C(=O)N[C@@H](CCN)C(=O)N[C@H](Cc1ccccc1)C(=O)N[C@@H](CC(C)C)C(=O)N[C@@H](CCN)C(=O)N[C@@H](C(=O)N[C@@H](CC(C)C)C(=O)N[C@@H](CO)C(N)=O)C(C)C)[C@@H](C)CC (Hexanoyl-[Dab]I[Dab][dF]L[Dab][dV]LS-NH2) , thanks.
> 32 µg/mL
